Origin of values: ChEMBL document CHEMBL2218924

measured target: SRSF protein kinase 1 (Homo sapiens) (UniProt Q96SB4)
Sequence (Q96SB4 whole entry): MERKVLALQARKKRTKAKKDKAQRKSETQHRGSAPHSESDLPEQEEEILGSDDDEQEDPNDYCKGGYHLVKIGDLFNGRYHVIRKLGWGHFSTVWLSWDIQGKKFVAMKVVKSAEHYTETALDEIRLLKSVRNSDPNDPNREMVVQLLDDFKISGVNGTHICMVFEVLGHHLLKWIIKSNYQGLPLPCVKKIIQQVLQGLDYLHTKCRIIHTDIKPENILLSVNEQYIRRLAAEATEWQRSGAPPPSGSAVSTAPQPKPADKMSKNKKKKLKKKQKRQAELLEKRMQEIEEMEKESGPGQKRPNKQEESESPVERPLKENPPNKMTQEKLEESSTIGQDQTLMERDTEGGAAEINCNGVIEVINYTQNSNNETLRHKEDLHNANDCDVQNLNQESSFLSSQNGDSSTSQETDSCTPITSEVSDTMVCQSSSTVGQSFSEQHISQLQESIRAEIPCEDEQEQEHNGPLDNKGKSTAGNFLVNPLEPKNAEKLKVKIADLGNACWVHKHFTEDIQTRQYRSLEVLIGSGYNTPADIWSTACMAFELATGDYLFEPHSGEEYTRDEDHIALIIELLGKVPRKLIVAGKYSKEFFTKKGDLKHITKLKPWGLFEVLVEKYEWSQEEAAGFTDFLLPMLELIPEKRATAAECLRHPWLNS
measurement context: at 10 µM
attribute measured: residual activity (%)
Give your result in % as a bare value.

Task: Return residual activity (reported value) for this compound: "O=C1c2ccccc2-[n+]2ccc3c([nH]c4ccccc43)c21"
Result: 93

Task: Specify reported residual activity for the compound shown: "CC(C)n1cnc2c(NCc3ccccc3)nc(NCCCO)nc21"
Result: 37

Task: In one line, give reported residual activity of the entry "Nc1ccc2ncnc(NCCc3ccc(Oc4ccccc4)cc3)c2c1" .
Result: 114

Task: Output residual activity of "COc1ccc(S(=O)(=O)N(CCO)c2ccccc2CN(C)C/C=C/c2ccc(Cl)cc2)cc1"
Result: 96

Task: Tell me residual activity reported for "CC[n+]1c(/C=C/N(C)c2ccccc2)n(-c2ccccc2)c2ccc(-c3nc4ccccc4s3)cc21"
Result: 124

Task: Fill in reported residual activity for this entry: "Cn1cc(/C=C2\C(=O)Nc3ccc(S(N)(=O)=O)cc32)c2ccccc21"
Result: 13

Task: Tell us which residual activity value is on record for "Ic1cccc(CSc2nnc(-c3ccncc3)o2)c1"
Result: 102
